assay: gradient 5% acetonitrile 3 min, to 50% in 2 min, to 85% in 15 min, held 3 min, 100 µL/min; conditions: column: Zorbax Extend-C18 2.1 x 50 mm; eluents: water / acetonitrile, 0.1% formic acid
MEASUREMENT NAME: RP-LC retention time (s)
Numbers only, in s.

{"columns": ["SMILES ENTRY", "RP-LC retention time, s"],
 "data": [
  ["CCOc1ccccc1C(=O)Nc1c(-c2ccc(F)cc2)nc2ccccn12", 719],
  ["Cn1c(=O)n([C@H]2CCCN(C(=O)Nc3ccc4c(c3)OCCO4)C2)c2ncccc21", 684]
]}

The record that follows has no RP-LC retention time shown yet.
Q: Can you look up the measured RP-LC retention time of CCC(=O)N1CCc2c(C(=O)NC(C)C)cccc21 for me?
Result: 687
